- assay protocol: in vitro
- condition parameters: human, liver microsomes, pH 7.4
readout: half-life (min)
Report the figure in min without appending any unit label.

Look at this compound and give its reported half-life. O=C(O)Cc1ccccc1Nc1c(Cl)cccc1Cl [Diclofenac, reference compound]
19.6

* * *

- assay protocol: in vitro
- condition parameters: rat, liver microsomes, pH 7.4
readout: remaining at 0.5 h (%)
Kindly answer with a numeric value in %, unit omitted.

Entry O=C(O)Cc1ccccc1Nc1c(Cl)cccc1Cl [Diclofenac, reference compound] : reported remaining at 0.5 h = ?
88.6

* * *

- assay protocol: in vitro
- condition parameters: human, plasma
Where a SMILES comes first, the peptide text is derived from it. [ ]: non-standard residue; d: D form. The star is where a group is joined. d(aIle) = CC[C@H](C)[C@@H](N)C(=O)O; X1 = CC[C@H](C)CCCCC(=O)*; dDab = NCC[C@@H](N)C(=O)O; Dab = NCC[C@H](N)C(=O)O
readout: fraction unbound at 4 h, 10 µM
Form field (numeric): enter value without unit.

// fraction unbound at 4 h, 10 µM lookup, key: CC[C@H](C)CCCCC(=O)NCC(=O)N[C@H](CCN)C(=O)NCC(=O)N[C@H](CO)C(=O)N[C@H](Cc1c[nH]c2ccccc12)C(=O)N[C@@H](CO)C(=O)N[C@@H](CCN)C(=O)N[C@H](CCN)C(=O)N[C@H](C(=O)N[C@@H](CCC(=O)O)C(=O)N[C@H](C(=O)N[C@@H](C(=O)N[C@@H](CO)C(=O)O)[C@@H](C)CC)[C@@H](C)CC)[C@@H](C)CC [Tridecaptin M, tridecaptin M] (X1-G[dDab]G[dS][dW]S[Dab][dDab]IEI[d(aIle)]S-OH)
0.227

* * *

- system: CYP2C9 (Homo sapiens)
- Sequence (P11712 whole entry, canonical isoform): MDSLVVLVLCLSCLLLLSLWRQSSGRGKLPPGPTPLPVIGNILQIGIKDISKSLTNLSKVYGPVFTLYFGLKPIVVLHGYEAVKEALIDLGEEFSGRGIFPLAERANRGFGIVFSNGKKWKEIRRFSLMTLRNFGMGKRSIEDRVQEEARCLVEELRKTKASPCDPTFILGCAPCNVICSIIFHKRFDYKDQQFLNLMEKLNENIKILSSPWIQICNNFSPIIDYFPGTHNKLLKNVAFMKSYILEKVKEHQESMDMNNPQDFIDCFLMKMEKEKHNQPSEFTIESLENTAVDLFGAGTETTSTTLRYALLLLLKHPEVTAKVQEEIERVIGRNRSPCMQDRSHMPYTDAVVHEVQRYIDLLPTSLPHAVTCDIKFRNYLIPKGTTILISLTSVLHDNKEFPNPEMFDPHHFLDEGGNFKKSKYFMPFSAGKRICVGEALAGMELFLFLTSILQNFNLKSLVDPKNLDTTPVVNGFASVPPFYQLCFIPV
- assay protocol: CYP inhibition assay, recombinant isoform, fluorescence
- Type: biochemical
- condition parameters: human; 0.03 µM; read-out: % inhibition CYP 2C9
readout: inhibition at 25 min, 0.03 µM (%)
Could you give me the number in %? Just the number is fine.

Consider the compound shown here: Nc1ccc(S(=O)(=O)Nc2ccnn2-c2ccccc2)cc1 [Sulfaphenazole, reference compound] What is its recorded inhibition at 25 min, 0.03 µM?
27.2

* * *

- assay protocol: in vitro
- condition parameters: mouse, liver microsomes, pH 7.4
readout: remaining at 2 h (%)
Just the number please, in %, no unit attached.

// remaining at 2 h lookup, key: O=C(O)Cc1ccccc1Nc1c(Cl)cccc1Cl [Diclofenac, reference compound]
40.1

* * *

- system: CYP3A4 (Homo sapiens)
- Sequence (P08684 whole entry, canonical isoform): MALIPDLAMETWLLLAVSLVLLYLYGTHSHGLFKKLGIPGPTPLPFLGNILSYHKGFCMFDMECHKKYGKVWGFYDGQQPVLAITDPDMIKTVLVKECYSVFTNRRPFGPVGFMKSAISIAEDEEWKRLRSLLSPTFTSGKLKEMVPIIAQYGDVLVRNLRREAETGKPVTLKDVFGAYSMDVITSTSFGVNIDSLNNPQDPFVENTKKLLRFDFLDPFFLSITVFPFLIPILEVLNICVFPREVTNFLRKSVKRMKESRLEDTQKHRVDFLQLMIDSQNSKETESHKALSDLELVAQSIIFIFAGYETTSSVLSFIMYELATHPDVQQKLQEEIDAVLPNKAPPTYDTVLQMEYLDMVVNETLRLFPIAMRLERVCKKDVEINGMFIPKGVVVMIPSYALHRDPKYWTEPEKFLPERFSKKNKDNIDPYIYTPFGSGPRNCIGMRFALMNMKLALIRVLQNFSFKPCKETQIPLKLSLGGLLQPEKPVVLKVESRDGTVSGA
- assay protocol: CYP inhibition assay, recombinant isoform, fluorescence
- Type: biochemical
- condition parameters: human
Where a SMILES comes first, the peptide text is derived from it. [ ]: non-standard residue; d: D form. The star is where a group is joined. d(aIle) = CC[C@H](C)[C@@H](N)C(=O)O; X1 = CC[C@H](C)CCCCC(=O)*; dDab = NCC[C@@H](N)C(=O)O; Dab = NCC[C@H](N)C(=O)O
readout: inhibition at 25 min, 10 µM (%)
Provide the reading as a plain figure in %.

Given CC[C@H](C)CCCCC(=O)NCC(=O)N[C@H](CCN)C(=O)NCC(=O)N[C@H](CO)C(=O)N[C@H](Cc1c[nH]c2ccccc12)C(=O)N[C@@H](CO)C(=O)N[C@@H](CCN)C(=O)N[C@H](CCN)C(=O)N[C@H](C(=O)N[C@@H](CCC(=O)O)C(=O)N[C@H](C(=O)N[C@@H](C(=O)N[C@@H](CO)C(=O)O)[C@@H](C)CC)[C@@H](C)CC)[C@@H](C)CC [Tridecaptin M, tridecaptin M] (X1-G[dDab]G[dS][dW]S[Dab][dDab]IEI[d(aIle)]S-OH) , state its recorded inhibition at 25 min, 10 µM.
28
